target or test system: SARS-CoV-2 spike RBD (WT) (Severe acute respiratory syndrome …, UniProt P0DTC2)
assay summary: BLI
endpoint name: pKd
When answering, recall that pKd equals minus log10 of the concentration in mol/L, and write that number alone.

Request: For C2731 (antibody, V domains shown) VH: QVQLQQWGAGLLKPSETLSRTCAVYGGSFSGYYWSWIRQSPGKGLEWIGEINHRGSTNYNPSLKSRVTISVDTSKNQLSLELRSVTAADTAVYYCARSPGWTTVTRPFDYWGQGALVTVSS VL: EIVLTQSPGTLSLSPGERATLSCRASQSVSSNYLAWYQQKPGQAPRLLVYGASNRATGIPDRFSGSGSGTDFTLTISRLEPEDFAVFYCQQYSSSPVTFGQGTRLEIK , what is its reported pKd?
Response: 6.84

Request: For D002 (antibody, V domains shown) VH: EVQLVQSGAEVKKPGESLKISCKASGYNFTTSWIGWVRQMPGKGLEWMGIIYPGDFDTTYSPSFQGQVTISADKSISTAYLQWSSLKASDTAMYYCARVGPTAGTDGYNYLDWYFDLWGRGTLVTVSS VL: SYELTQPPSVSVSPGQTARITCSGDALPKQFSYWYQQKPGQAPVLVIYKDNERPSGIPERFSGSSSGTTVTLTISGVQAEDEADYYCQSADSISWVFGGGTKLTVL , what is its reported pKd?
Response: 6.33
